This collection of values is drawn from paper PMC5944384.

# System: C13* ovarian cancer cells (cisplatin resistant)
# measurement.notes: MTT cytotoxicity test, 72 h
# Format: cell-based, human
# run.conditions: read-out: IC50 C13* ovary; MTT, 72 h
metric.name: IC50 (µM)
# unit: µM | format: bare number

The following molecules have reported results that may help.
[NH2][Pt]([NH2])([Cl])[Cl] [CDDP, Cisplatin] :: 22.5
O=C1[O][Pt]2([NH][C@@H]3CCCC[C@H]3[NH]2)[O]C1=O :: 3.06

Lab note: next molecule to report on.
Enquiry: Supply reported IC50 belonging to this molecule: [NH2][Pt]([NH2])([Cl])([Cl])([O]C(=O)CCCc1ccccc1)[O]C(=O)C(Cl)Cl [CPD, ctc-[Pt(NH3)2(PhB)(DCA)Cl2]]
Return: 0.58
